Where do these numbers come from? They come from patent US20260347351A1.

experimental.target: CYP2D6 (Homo sapiens, UniProt P10635)
Sequence (P10635 whole entry): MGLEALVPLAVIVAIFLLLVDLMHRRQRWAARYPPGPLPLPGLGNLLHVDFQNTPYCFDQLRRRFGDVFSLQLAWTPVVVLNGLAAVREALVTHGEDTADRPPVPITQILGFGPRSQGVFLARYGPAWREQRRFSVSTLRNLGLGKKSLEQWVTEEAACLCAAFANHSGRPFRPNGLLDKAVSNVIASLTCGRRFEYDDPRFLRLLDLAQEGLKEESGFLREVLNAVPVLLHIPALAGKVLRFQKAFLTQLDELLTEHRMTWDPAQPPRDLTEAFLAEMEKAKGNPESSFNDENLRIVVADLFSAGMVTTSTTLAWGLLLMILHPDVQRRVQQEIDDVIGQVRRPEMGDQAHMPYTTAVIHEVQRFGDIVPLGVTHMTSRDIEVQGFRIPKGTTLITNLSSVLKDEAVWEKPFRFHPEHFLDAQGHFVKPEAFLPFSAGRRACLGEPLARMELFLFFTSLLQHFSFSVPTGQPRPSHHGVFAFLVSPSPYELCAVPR
reported.property: IC50

Lookup result for `CCN(CC)C(=O)c1cc(-c2cccs2)nc2c1c(C)nn2-c1ccccc1` ; measured IC50: > 10 µM

* * *

assay.overview: Metabolic stability in mouse liver microsomes
Format: in vitro ADME
stated.conditions: Example 4 Table 1, read-out: Mouse Liver Microsome Clint
Procedure: Metabolic stability: Samples at 37° C. in the presence of human or mouse liver microsomes and NADPH according to standard methods. Aliquots are removed at 5 time points, quenched and analyzed (LCMS/MS and MS/MS as needed) for remaining test compound, along with a positive control. Microsomal protein content is adjusted to give consistent results. Data are reported as half-life and clearance. Assay acceptance criteria is 20% for all standards and 25% for the LLOQ.
reported.property: microsomal CLint

Lookup result for `CCN(CC)C(=O)c1cc(-c2cccs2)nc2c1c(C)nn2-c1ccccc1` ; measured microsomal CLint: > 690 µL/min/mg
